Assay system: eqBuChE (from equine serum) (Equus caballus, UniProt P81908)
Sequence (P81908 whole entry): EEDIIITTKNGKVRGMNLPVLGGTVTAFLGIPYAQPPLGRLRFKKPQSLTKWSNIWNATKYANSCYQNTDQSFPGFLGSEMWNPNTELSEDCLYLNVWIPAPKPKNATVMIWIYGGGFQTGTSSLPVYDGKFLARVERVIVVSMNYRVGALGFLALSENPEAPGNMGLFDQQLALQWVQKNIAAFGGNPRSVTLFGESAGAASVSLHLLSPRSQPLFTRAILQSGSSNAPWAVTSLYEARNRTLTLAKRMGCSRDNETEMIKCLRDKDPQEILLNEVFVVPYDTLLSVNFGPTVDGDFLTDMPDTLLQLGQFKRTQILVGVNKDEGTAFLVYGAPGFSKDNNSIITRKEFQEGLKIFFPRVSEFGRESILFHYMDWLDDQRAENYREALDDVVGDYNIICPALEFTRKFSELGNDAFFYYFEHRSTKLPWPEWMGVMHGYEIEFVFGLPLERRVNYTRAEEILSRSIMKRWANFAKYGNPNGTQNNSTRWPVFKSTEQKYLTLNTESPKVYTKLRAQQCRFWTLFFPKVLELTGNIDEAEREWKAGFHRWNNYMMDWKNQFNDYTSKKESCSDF
Method description: biochemical
pIC50: −log10 of the molar value.
# pIC50 >= 8 gives Y, anything below gives N

[[record]]
compound = "c1ccc2c(NCCCCCCCN3CCc4c([nH]c5ccccc45)C3)c3c(nc2c1)CCCC3"
qualitative_label = "Y"

[[record]]
compound = "Cc1c(C)c2c(c(C)c1O)CCC(C)(C(=O)NCCCCCCNc1c3c(nc4ccccc14)CCCC3)O2 (stereo not drawn)"
qualitative_label = "Y"

[[record]]
compound = "c1ccc2c3c([nH]c2c1)CN(CCN1CCc2c([nH]c4ccccc24)C1)CC3"
qualitative_label = "N"

[[record]]
compound = "Cc1c(C)c2c(c(C)c1O)CCC(C)(C(=O)NCCNc1c3c(nc4ccccc14)CCCC3)O2 (stereo not drawn)"
qualitative_label = "N"


* * *

Assay system: TcAChE (from electric eel) (Electrophorus electricus)
Sequence (O42275 24-633): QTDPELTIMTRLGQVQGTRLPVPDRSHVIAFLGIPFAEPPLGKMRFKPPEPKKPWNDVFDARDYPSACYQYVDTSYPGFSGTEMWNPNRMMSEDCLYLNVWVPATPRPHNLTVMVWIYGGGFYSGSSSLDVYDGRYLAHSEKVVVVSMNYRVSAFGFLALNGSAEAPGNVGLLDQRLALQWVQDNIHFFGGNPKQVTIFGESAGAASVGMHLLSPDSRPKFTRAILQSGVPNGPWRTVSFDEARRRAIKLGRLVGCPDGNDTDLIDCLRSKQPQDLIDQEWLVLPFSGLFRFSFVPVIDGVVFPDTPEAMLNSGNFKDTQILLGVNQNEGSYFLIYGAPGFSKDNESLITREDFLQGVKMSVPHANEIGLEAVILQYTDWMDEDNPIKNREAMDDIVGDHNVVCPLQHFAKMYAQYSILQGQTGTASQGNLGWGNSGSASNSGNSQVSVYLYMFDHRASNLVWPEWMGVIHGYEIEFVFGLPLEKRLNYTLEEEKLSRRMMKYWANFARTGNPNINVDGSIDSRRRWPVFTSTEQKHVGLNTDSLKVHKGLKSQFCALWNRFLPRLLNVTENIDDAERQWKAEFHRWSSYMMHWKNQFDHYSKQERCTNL
Quick list: IC50 per entry.
Metric: IC50 (nM)

[[record]]
molecule = "Cc1c(C)c2c(c(C)c1O)CCC(C)(C(=O)NCCNc1c3c(nc4ccccc14)CCCC3)O2 (centres unmarked)"
censor_symbol = "="
observed_value = 1530

[[record]]
molecule = "Cc1c(C)c2c(c(C)c1O)CCC(C)(C(=O)NCCCNc1c3c(nc4ccccc14)CCCC3)O2 (centres unmarked)"
censor_symbol = "="
observed_value = 1530

[[record]]
molecule = "Cc1c(C)c2c(c(C)c1O)CCC(C)(C(=O)NCCCCCCNc1c3c(nc4ccccc14)CCCC3)O2 (centres unmarked)"
censor_symbol = "="
observed_value = 49.3

[[record]]
molecule = "c1ccc2c3c([nH]c2c1)CN(CCN1CCc2c([nH]c4ccccc24)C1)CC3"
censor_symbol = ">"
observed_value = 100000

[[record]]
molecule = "Cc1c(C)c2c(c(C)c1O)CCC(C)(C(=O)NCCCCNc1c3c(nc4ccccc14)CCCC3)O2 (centres unmarked)"
censor_symbol = "="
observed_value = 2200


Source: paper PMC5418947
